# ASSAYED_TARGET: heIF4E1b (Homo sapiens, UniProt A6NMX2)
# Construct: made in house; host or cells: E. coli Rosetta2(DE3)
# Sequence (A6NMX2 whole entry): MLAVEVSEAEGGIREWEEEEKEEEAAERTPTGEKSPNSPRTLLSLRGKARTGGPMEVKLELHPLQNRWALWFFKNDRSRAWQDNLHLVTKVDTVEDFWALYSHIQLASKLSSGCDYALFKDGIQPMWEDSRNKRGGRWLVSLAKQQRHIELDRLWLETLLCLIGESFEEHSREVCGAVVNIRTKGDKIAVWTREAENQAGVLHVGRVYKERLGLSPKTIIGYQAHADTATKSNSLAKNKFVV
# MEASUREMENT_DESCRIPTION: time-synchronized fluorescence titration of cap analogue binding
# CONDITION_SUMMARY: equilibrium association constant; buffer without glycerol
READOUT_LABEL: Kas − glycerol heIF4E1b (μM^− 1)
Numeric only. Scale: μM^− 1

Here are 2 compounds together with their reported answers.
>  <COMPOUND>
CO[C@@H]1[C@H](O)[C@@H](COP(=O)(O)OP(=O)(O)OP(=O)(O)OC[C@H]2O[C@@H](n3c[n+](C)c4c(=O)[nH]c(N)nc43)[C@H](O)[C@@H]2O)O[C@H]1n1cnc2c(=O)[nH]c(N)nc21 [m^7Gpppm^2′-OG]

>  <ASSAYED_TARGET>
heIF4E1b (Homo sapiens, UniProt A6NMX2)

>  <READOUT_UNITS>
μM^− 1

>  <Kas − glycerol heIF4E1b>
3.568

$$$$
>  <COMPOUND>
Cn1c[n+]([C@@H]2O[C@H](COP(=O)(O)OP(=O)([O-])O)[C@@H](O)[C@H]2O)c2nc(N)[nH]c(=O)c21 [m^7GDP]

>  <ASSAYED_TARGET>
heIF4E1b (Homo sapiens, UniProt A6NMX2)

>  <READOUT_UNITS>
μM^− 1

>  <Kas − glycerol heIF4E1b>
7.64

$$$$

Query COC1C(O)C(COP(=O)(O)OP(=O)(O)OP(=O)(O)OCC2OC(n3cnc4c(=O)[nH]c(N)nc43)C(O)C2O)OC1n1c[n+](C)c2c(=O)[nH]c(N)nc21 (stereo not shown) [m^7,2′-OGpppG] yields Kas − glycerol heIF4E1b of 4.63

Query Cn1c[n+]([C@@H]2O[C@H](COP(=O)(O)OP(=O)(O)OP(=O)(O)OP(=O)(O)OP(=O)(O)O)[C@@H](O)[C@H]2O)c2nc(N)[nH]c(=O)c21 [m^7Gp5] yields Kas − glycerol heIF4E1b of 146.6

Query Cn1c[n+]([C@@H]2O[C@H](COP(=O)([O-])OP(=O)(O)OP(=O)(O)O)[C@@H](O)[C@H]2O)c2nc(N)[nH]c(=O)c21 [m^7GTP] yields Kas − glycerol heIF4E1b of 22.0

Query CN(C)c1nc2c(c(=O)[nH]1)[n+](C)cn2[C@@H]1O[C@H](COP(=O)(O)OP(=O)(O)OP(=O)(O)O)[C@@H](O)[C@H]1O [m^2,2,7GTP] yields Kas − glycerol heIF4E1b of 0.272

Query Nc1nc2c(c(=O)[nH]1)n(Cc1ccccc1)c[n+]2[C@@H]1O[C@H](COP(=O)(O)OP(=O)(O)O)[C@@H](O)[C@H]1O [bn^7GDP] yields Kas − glycerol heIF4E1b of 35.4
